Numbers sourced from paper PMC7582905.

System: Candida tropicalis PCM 2709-FY
Type: cell-based
Condition notes: PCM 2709-FY, 24 h
Where a SMILES comes first, the peptide text is derived from it. Bridges are numbered along the chain shown (N, C = ends). The star is where a group is joined. Palmitoyl = CCCCCCCCCCCCCCCC(=O)*

Compound: CCCCCCCCCCCCCCCC(=O)N[C@@H](CCCNC(=N)N)C(=O)N[C@@H](CCCNC(=N)N)C(=O)N[C@@H](CCCCN)C(=O)N[C@@H](CCCCN)C(N)=O [L7, C16-RRKK-NH2] (Palmitoyl-RRKK-NH2)
Unit annotation: µg/mL
MIC C. tropicalis: 8
--
Compound: CCCCCCCCCCCCCCCC(=O)N[C@@H](CCCCN)C(=O)N[C@@H](CCCNC(=N)N)C(=O)N[C@@H](CCCCN)C(=O)N[C@@H](CCCCN)C(N)=O [L4, C16-KRKK-NH2] (Palmitoyl-KRKK-NH2)
Unit annotation: µg/mL
MIC C. tropicalis: 2
--
Compound: CCCCCCCCCCCCCCCC(=O)N[C@@H](CCCNC(=N)N)C(=O)N[C@@H](CCCCN)C(=O)N[C@@H](CCCCN)C(=O)N[C@@H](CCCCN)C(N)=O [L3, C16-RKKK-NH2] (Palmitoyl-RKKK-NH2)
Unit annotation: µg/mL
MIC C. tropicalis: 8
--
Compound: CCCCCCCCCCCCCCCC(=O)N[C@H]1CSSC[C@@H](C(N)=O)NC(=O)[C@H](CCCCN)NC(=O)[C@H](CCCCN)NC(=O)[C@H](CCCCN)NC(=O)[C@H](CCCNC(=N)N)NC1=O [C3, C16-CRKKKC-NH2] (Palmitoyl-CRKKKC-NH2; disulfide 1-6)
Unit annotation: µg/mL
MIC C. tropicalis: 2

----------
Method description: RP-HPLC determination of peptide hydrophobicity
Format: physicochemical
Condition notes: tR of cyclic analog − tR of parent lipopeptide; RP-HPLC, RP-18, 20–65% acetonitrile over 30 min, 0.1% TFA
Where a SMILES comes first, the peptide text is derived from it. Bridges are numbered along the chain shown (N, C = ends). The star is where a group is joined. Palmitoyl = CCCCCCCCCCCCCCCC(=O)*
Form field: ∆tR (one value per entry).

Molecule: CCCCCCCCCCCCCCCC(=O)N[C@H]1CSSC[C@@H](C(N)=O)NC(=O)[C@H](CCCCN)NC(=O)[C@H](CCCCN)NC(=O)[C@H](CCCCN)NC(=O)[C@H](CCCCN)NC1=O [C2, C16-CKKKKC-NH2] (Palmitoyl-CKKKKC-NH2; disulfide 1-6)
∆tR: +1.18 min
//
Molecule: CCCCCCCCCCCCCCCC(=O)N[C@H]1CSSC[C@@H](C(N)=O)NC(=O)[C@H](CCCCN)NC(=O)[C@H](CCCNC(=N)N)NC(=O)[C@H](CCCCN)NC(=O)[C@H](CCCCN)NC1=O [C5, C16-CKKRKC-NH2] (Palmitoyl-CKKRKC-NH2; disulfide 1-6)
∆tR: +1.15 min
//
Molecule: CCCCCCCCCCCCCCCC(=O)N[C@H]1CSSC[C@@H](C(N)=O)NC(=O)[C@H](CCCCN)NC(=O)[C@H](CCCCN)NC(=O)[C@H](CCCNC(=N)N)NC(=O)[C@H](CCCNC(=N)N)NC1=O [C7, C16-CRRKKC-NH2] (Palmitoyl-CRRKKC-NH2; disulfide 1-6)
∆tR: +1.25 min
//
Molecule: CCCCCCCCCCCCCCCC(=O)N[C@H]1CSSC[C@@H](C(N)=O)NC(=O)[C@H](CCCCN)NC(=O)[C@H](CCCCN)NC(=O)[C@H](CCCCN)NC(=O)[C@H](CCCNC(=N)N)NC1=O [C3, C16-CRKKKC-NH2] (Palmitoyl-CRKKKC-NH2; disulfide 1-6)
∆tR: +1.30 min
